# key: entry, value: Survival
Target: Multidrug resistance-associated protein 1 (Homo sapiens)
Sequence (P33527 whole entry): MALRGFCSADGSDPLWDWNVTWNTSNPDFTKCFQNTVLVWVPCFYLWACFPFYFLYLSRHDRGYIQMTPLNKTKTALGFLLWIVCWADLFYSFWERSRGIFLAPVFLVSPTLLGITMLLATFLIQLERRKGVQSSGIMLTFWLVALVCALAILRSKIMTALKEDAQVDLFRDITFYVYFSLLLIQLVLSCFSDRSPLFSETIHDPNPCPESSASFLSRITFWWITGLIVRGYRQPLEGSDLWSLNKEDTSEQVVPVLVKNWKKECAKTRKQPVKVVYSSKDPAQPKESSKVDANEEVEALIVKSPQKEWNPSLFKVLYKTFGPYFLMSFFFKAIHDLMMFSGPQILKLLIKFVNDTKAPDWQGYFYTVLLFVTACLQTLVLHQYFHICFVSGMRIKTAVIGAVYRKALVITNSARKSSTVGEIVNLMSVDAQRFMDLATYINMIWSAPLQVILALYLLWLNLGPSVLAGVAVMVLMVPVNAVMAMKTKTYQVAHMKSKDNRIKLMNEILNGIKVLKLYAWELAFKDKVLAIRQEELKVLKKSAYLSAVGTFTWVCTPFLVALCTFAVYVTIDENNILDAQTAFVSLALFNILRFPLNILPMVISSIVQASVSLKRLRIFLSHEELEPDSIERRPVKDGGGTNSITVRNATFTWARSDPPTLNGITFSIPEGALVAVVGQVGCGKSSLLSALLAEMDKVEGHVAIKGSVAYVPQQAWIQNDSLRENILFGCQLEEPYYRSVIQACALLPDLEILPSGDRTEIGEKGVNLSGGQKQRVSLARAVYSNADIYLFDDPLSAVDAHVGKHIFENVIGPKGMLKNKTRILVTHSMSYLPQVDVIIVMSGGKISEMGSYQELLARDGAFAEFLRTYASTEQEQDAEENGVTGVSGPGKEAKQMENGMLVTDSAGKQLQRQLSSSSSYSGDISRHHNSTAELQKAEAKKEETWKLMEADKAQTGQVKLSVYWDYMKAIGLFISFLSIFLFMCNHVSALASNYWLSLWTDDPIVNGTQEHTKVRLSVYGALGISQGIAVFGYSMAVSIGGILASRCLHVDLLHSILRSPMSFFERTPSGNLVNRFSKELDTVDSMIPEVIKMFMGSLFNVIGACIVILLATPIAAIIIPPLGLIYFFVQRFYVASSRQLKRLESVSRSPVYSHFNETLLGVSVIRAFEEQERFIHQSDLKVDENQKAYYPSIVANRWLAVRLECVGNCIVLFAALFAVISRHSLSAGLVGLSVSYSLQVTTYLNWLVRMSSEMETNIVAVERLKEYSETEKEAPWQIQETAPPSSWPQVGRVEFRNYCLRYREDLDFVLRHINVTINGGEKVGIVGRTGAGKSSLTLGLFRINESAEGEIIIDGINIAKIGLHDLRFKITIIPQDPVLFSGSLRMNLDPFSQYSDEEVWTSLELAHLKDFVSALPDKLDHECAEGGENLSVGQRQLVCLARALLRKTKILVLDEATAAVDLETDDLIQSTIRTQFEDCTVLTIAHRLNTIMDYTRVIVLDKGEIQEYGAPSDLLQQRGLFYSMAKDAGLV
Assay: Inhibition of MRP1 in human 2008/MRP1 cells assessed as potentiation of doxorubicin-induced cytotoxicity by measuring cell survival at 1 uM after 5 days by MTS assay relative to control
Type: cell-based
Details: 120 h
Report the figure in % without appending any unit label.

| smiles-input | Survival [%] |
| --- | --- |
| O=c1cc(-c2ccccc2)oc2cc(OCCCc3cn(CCOCCOCCOc4ccc(-c5cc(=O)c6cc(F)ccc6o5)cc4)nn3)ccc12 | 49 |
| O=c1cc(-c2ccc(OCCCc3cn(CCOCCOc4ccc5c(=O)cc(-c6ccccc6)oc5c4)nn3)cc2)oc2cc(F)ccc12 | 49 |
| O=c1cc(-c2ccc(OCCOCCOCCn3cc(CCCOc4ccc(-c5cc(=O)c6ccc(F)cc6o5)cc4)nn3)cc2)oc2ccccc12 | 51 |

Challenge: Report Survival, nothing else, for this compound: `O=c1cc(-c2ccccc2)oc2cc(OCCCc3cn(CCOCCOc4ccc5c(=O)cc(-c6ccccc6)oc5c4)nn3)ccc12`
Response given: 49
